For each entry below, report its tissue uptake dose at 1 h value.
- EXPERIMENTAL DETAILS: Biodistribution of radiometal-DOTA-BBN conjugates in CF1 normal mice
- ASSAY SETUP: CF-1, mouse, in vivo, iv, total radioactivity, Avg % ID, Kidney, 1 hour post-injection
One number for each entry, in %ID.

For each entry beneath this line, provide reported tissue uptake dose at 1 h.
1. CSCC[C@H](NC(=O)[C@H](CC(C)C)NC(=O)[C@H](Cc1cnc[nH]1)NC(=O)CNC(=O)[C@@H](NC(=O)[C@H](C)NC(=O)[C@H](Cc1c[nH]c2ccccc12)NC(=O)[C@H](CCC(N)=O)NC(=O)CCCCCCCNC(=O)CN1CCN(CC(=O)O)CCN(CC(=O)O)CCN(CC(=O)O)CC1)C(C)C)C(N)=O [111In-DOTA-8-Aoc-BBN[7-14]NH2, metal not drawn]
2. CSCC[C@H](NC(=O)[C@H](CC(C)C)NC(=O)[C@H](Cc1c[nH]cn1)NC(=O)CNC(=O)[C@@H](NC(=O)[C@H](C)NC(=O)[C@H](Cc1c[nH]c2ccccc12)NC(=O)[C@H](CCC(N)=O)NC(=O)CCCCNC(=O)CN1CCN(CC(=O)O)CCN(CC(=O)O)CCN(CC(=O)O)CC1)C(C)C)C(N)=O [111In-DOTA-5-Ava-BBN[7-14]NH2, metal not drawn]

1: 1.04; 2: 0.75

For each entry beneath this line, provide reported tissue uptake dose at 1 h.
1. CSCC[C@H](NC(=O)[C@H](CC(C)C)NC(=O)[C@H](Cc1c[nH]cn1)NC(=O)CNC(=O)[C@@H](NC(=O)[C@H](C)NC(=O)[C@H](Cc1c[nH]c2ccccc12)NC(=O)[C@H](CCC(N)=O)NC(=O)CCCCCCCCCCNC(=O)CN1CCN(CC(=O)O)CCN(CC(=O)O)CCN(CC(=O)O)CC1)C(C)C)C(N)=O [111In-DOTA-11-Aun-BBN[7-14]NH2, metal not drawn]
2. CSCC[C@H](NC(=O)[C@H](CC(C)C)NC(=O)[C@H](Cc1cnc[nH]1)NC(=O)CNC(=O)[C@@H](NC(=O)[C@H](C)NC(=O)[C@H](Cc1c[nH]c2ccccc12)NC(=O)[C@H](CCC(N)=O)NC(=O)CCNC(=O)CN1CCN(CC(=O)O)CCN(CC(=O)O)CCN(CC(=O)O)CC1)C(C)C)C(N)=O [111In-DOTA-β-Ala-BBN[7-14]NH2, metal not drawn]

1.07
0.62
